Hi there, I'd appreciate the recorded pIC50 for every entry that follows.
# Test system: LNCaP C4-2
# protocol: Cytotoxicity against human C4-2 cells assessed as reduction in cell viability measured after 72 hrs by methylene blue staining based assay
# Assay type: functional
# condition: LNCaP C4-2, 72 h
Answer as the number alone; pIC50 is minus log10 of concentration in mol/L.

Prompt line: # input compound: CC(C)(C)c1ccc(Nc2nc3ccccc3nc2Nc2ccc(C(C)(C)C)cc2)cc1 ; wanted: its pIC50
Response line: 4.73

Prompt line: Also, Fc1ccc(Nc2nc3ccccc3nc2Nc2ccc(F)cc2)cc1 please.
Response line: 5.51

Prompt line: Also, Cc1cccc(Nc2nc3nonc3nc2N/N=C/c2ccc(-c3cccc(C(=O)O)c3)o2)c1C please.
Response line: 5.04

Prompt line: Also, O=C(Nc1nc2ccccc2nc1Nc1ccc(F)cc1)c1ccc2c(c1)OCO2 please.
Response line: 4.84

Prompt line: Also, Cc1cccc(Nc2nc3ccccc3nc2Nc2cccc(C)c2C)c1C please.
Response line: 4.75

Prompt line: Also, O=C(Nc1nc2ccccc2nc1Nc1ccc(F)cc1)c1ccccc1 please.
Response line: 4.90

* * *

# Test system: LNCaP C4-2
# protocol: Cytotoxicity against human C4-2 cells transfected with pcDNA3.1 assessed as reduction in cell viability measured after 72 hrs by methylene blue staining based assay
# Format: functional
# condition: LNCaP C4-2, 72 h
experimentalReadout: IC50 (µM)
API: value field is a number in µM; no unit string.

Prompt line: # input compound: Fc1ccc(Nc2nc3ccccc3nc2Nc2ccc(F)cc2)cc1 ; wanted: its IC50
Response line: 2
